# test system: T1, recombinant human PD-1-Fc-Biotin (human, UniProt Q15116 25-167, biotin (site not stated))
# T1 construct: also called antigen protein human PD-1; not shown: Fc
# T1 sequence (Q15116 25-167 limits assumed): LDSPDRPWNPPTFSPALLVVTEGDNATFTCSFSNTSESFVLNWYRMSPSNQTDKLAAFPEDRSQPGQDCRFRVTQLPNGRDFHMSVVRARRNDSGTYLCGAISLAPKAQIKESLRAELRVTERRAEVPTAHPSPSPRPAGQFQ
# assay info: competitive ELISA; PD-L1-mFc coated, 0.5 µg/mL PD-1-Fc-Biotin, streptavidin-HRP
Listing: IC50 of selected binders
Express the result in pM but write the number alone.

Here is how some binders turned out for IC50.
Ask: What does the data say about its IC50? Entry: MHPD1-A-H19 Fc (Fc fusion, not shown: a dimerising Fc or GST; small tags and cut ends, Second round of humanization; also called humanized nanobody-Fc fusion protein; parent MHPD1-A-H19 Fc) VHH: QVQLVESGGGLVQPGGSLRLSCAASGSDPSIYAMGWFRQAPGKGLEFVAGIGWSAATTYYADSVKGRFTISRDNTKNTLYLQMNSLRAEDTAVYYCAADLDHSGFDYWGQGTLVTVSS
Result: 1310

Ask: What does the data say about its IC50? Entry: MHPD1-A-13 H Fc (Fc fusion, not shown: Fc) QVQLVESGGGLVQPGGSLRLSCAASHADPSIYAMGWFRQAPGKGLEFVAGIGWNYATTYYADSVKGRFTISRDNTKNTLYLQMNSLRAEDTAVYYCAADLDHSGFDYWGQGTLVTVSS
Result: 395

Ask: What does the data say about its IC50? Entry: MHPD1-A-10 H Fc (Fc fusion, not shown: a dimerising Fc or GST; small tags and cut ends) VHH: QVQLVESGGGLVQPGGSLRLSCAASGSDDRIYAMGWFRQAPGKGLEFVAGIGWRYATTYYADSVKGRFTISRDNTKNTLYLQMNSLRAEDTAVYYCAADLDHSGFDYWGQGTLVTVSS
Result: 287

***
Ask: What does the data say about its IC50? Entry: MHPD1-A-4 H Fc (Fc fusion, not shown: a dimerising Fc or GST) QVQLVESGGGLVQPGGSLRLSCAASGSVGSIYAMGWFRQAPGKGLEFVAGIGWAFATTYYADSVKGRFTISRDNTKNTLYLQMNSLRAEDTAVYYCAADLDHSGFDYWGQGTLVTVSS
Result: 281
